Test system: Pseudomonas aeruginosa
Experiment: Antibiotic activity against Pseudomonas aeruginosa assessed as reduction in bacterial growth by Alamar Blue dye based CLSI broth microdilution method
Assay type: functional, organism-based
Calls of active or inactive are those of the source. The calls are words filed in the database; no cut-off is given here.

[
  {
    "GIVEN_SMILES": "COC(=O)[C@]12C(=O)[C@]3(C)O[C@](C)(C=C4[C@]5(C=O)CC[C@H](OC(C)=O)C(C)(C)[C@H]5CC[C@@]41C)[C@@]2(C)C3=O",
    "Activity": "inactive"
  },
  {
    "GIVEN_SMILES": "C[C@@H]1CCCCCCCCC[C@H](OC(=O)CCC(=O)O)[C@H](O)CCC(=O)O1",
    "Activity": "inactive"
  },
  {
    "GIVEN_SMILES": "C[C@@H](O)CCCCCCCCC[C@H](OC(=O)CCC(=O)O)[C@H]1CCC(=O)O1",
    "Activity": "inactive"
  },
  {
    "GIVEN_SMILES": "C[C@@H](O)CCCCCCCCC[C@H](O)[C@H]1CCC(=O)O1",
    "Activity": "inactive"
  }
]
